study.system: T1, human Myl9-His (human, UniProt P24844 2-172, limits assumed)
T1 construct: Made in E. coli; the GST tag was cleaved with PreScission Protease
T1 sequence: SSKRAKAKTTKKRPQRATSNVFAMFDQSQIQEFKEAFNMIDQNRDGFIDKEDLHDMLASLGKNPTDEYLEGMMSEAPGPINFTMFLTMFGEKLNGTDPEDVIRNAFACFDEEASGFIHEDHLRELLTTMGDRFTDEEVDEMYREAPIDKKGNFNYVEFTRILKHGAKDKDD
assay.explanation: ELISA, human Myl9-His coated, anti-human IgG-HRP
Procedure: The binding ability against human Myl9 was evaluated following the steps below by ELISA. Human Myl3-His and human Myl9-His were coated onto the wells of a 96-well plate (Nunc). After an overnight incubation at 4° C., the wells were blocked at room temperature for one hour with 1× Block Ace (DS Pharma Biomedical Co., Ltd.). […] An equal amount of reaction quenching solution (2N H₂SO₄) was added to the wells, and absorbance at 450 nm was read with a microplate reader (PerkinElmer).

[
  {
    "binder": "Humanized antibody No. 125 (antibody, human IgG2, kappa, V domains shown, human IgG2 (V234A, G237A, C-terminal Lys deleted) / kappa; Expi293F, Protein A purified; also called HK1-4/L4-2) VH: QVQLVQSGAEVKKPGSSVKVSCKASGGTFSDYEMHWVRQAPGQGLEWMGAIDPETGGTAYNQKFKGRATITADKSTSTAYMELRSLRSEDTAVYYCADYDYDGFAYWGQGTLVTVSS VL: DIVMTQTPLSSPVTLGQPASISCRSSQSLVHSNGNTYLHWYQQRPGQPPRLLISKVSNRFSGVPDRFSGSGAGTDFTLKISRVEAEDVGVYFCSQNTHVPPLTFGGGTKVEIKR",
    "binding result": "binds"
  },
  {
    "binder": "Humanized antibody No. 122 (antibody, human IgG2, kappa, V domains shown, human IgG2 (V234A, G237A, C-terminal Lys deleted) / kappa; Expi293F, Protein A purified; also called HA1-4/L4-2) VH: QVQLVQSGAEVKKPGSSVKVSCKASGYTFTDYEMHWVRQAPGQGLEWMGAIDPETGGTAYAQKFQGRATITADKSTSTAYMELRSLRSEDTAVYYCADYDYDGFAYWGQGTLVTVSS VL: DIVMTQTPLSSPVTLGQPASISCRSSQSLVHSNGNTYLHWYQQRPGQPPRLLISKVSNRFSGVPDRFSGSGAGTDFTLKISRVEAEDVGVYFCSQNTHVPPLTFGGGTKVEIKR",
    "binding result": "binds"
  },
  {
    "binder": "Humanized antibody No. 134 (antibody, human IgG2, kappa, V domains shown, human IgG2 (V234A, G237A, C-terminal Lys deleted) / kappa; Expi293F, Protein A purified; also called HK3-2/L4-2) VH: QVQLVQSGSELKKPGASVKVSCKASGYTFTDYEMHWVRQAPGQGLEWMGAIDPETGGTAYNQKFKGRFVFSLDTSVSTAYLQISSLKAEDTAVYYCADYDYDGFAYWGQGTLVTVSS VL: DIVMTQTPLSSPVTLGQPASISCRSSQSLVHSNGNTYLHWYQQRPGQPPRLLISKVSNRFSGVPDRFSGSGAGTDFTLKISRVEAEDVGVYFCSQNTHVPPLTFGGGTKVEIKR",
    "binding result": "binds"
  },
  {
    "binder": "Humanized antibody No. 110 (antibody, human IgG2, kappa, V domains shown, human IgG2 (V234A, G237A, C-terminal Lys deleted) / kappa; Expi293F, Protein A purified; also called HA1-6/L1-5) VH: QVQLVQSGAEVKKPGSSVKVSCKASGYTFTDYEMHWVRQAPGQGLEWMGAIDPETGGTAYAQKFQGRVTITADKSTSTAYMELRSLRSEDTAVYYCADYDYDGFAYWGQGTLVTVSS VL: DIVMTQSPLSLSITPGEQASISCRSSQSLVHSNGNTYLHWYLQKPGQSPQLLISKVSNRFSGVPDRFSGSGSGTDFTLKISRVEAEDVGVYFCSQNTHVPPLTFGGGTKVEIKR",
    "binding result": "binds"
  }
]
